target: CYP2D6 (Homo sapiens); assay: Study 2; conditions: human, plasma, oral, 30 mg
Sequence (P10635 whole entry): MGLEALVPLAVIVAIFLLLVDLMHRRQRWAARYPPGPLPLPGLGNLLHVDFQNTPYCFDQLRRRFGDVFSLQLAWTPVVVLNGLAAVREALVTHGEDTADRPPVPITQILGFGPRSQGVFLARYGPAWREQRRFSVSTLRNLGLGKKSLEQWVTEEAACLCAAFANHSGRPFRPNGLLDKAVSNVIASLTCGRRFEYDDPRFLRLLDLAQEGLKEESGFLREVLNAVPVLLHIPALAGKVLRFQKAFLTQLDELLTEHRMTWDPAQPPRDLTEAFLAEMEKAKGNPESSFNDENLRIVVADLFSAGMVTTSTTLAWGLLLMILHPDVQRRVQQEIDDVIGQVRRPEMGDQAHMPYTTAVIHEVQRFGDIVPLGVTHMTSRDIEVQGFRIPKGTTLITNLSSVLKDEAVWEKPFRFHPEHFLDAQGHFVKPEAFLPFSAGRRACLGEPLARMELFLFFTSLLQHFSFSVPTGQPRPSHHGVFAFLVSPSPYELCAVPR
outcome measure: Vd/F (L)
Number only, in L; omit the unit.

Provide Vd/F, recorded with CYP2D6 (Homo sapiens), of COc1ccc2c(c1)[C@]13CCCC[C@@H]1[C@H](C2)N(C)CC3
39000

====

molecular target: CYP2D6 (Homo sapiens); assay: Study 2; settings: human, plasma, oral, 30 mg
outcome measure: Tmax (h)
State the answer as a number, implicitly in h.

Kindly indicate its recorded Tmax. Item: COc1ccc2c(c1)[C@]13CCCC[C@@H]1[C@H](C2)N(C)CC3
2.5

====

tested on: CYP2B6; experiment: in vitro; type: in vitro ADME; settings: human, mRNA levels EC50, donor 3, 72 h
outcome measure: EC50 at 72 h (µM)
Express the result in µM but write the number alone.

Annotate the compound CCC(=O)C(C[C@H](C)N(C)C)(c1ccccc1)c1ccccc1 [esmethadone] with its measured EC50 at 72 h.
4.12
